tested on: A549; assay: NCI tumour cell line growth inhibition, 48 h
Calls of active or inactive are those of the source. Cut-off read from the data, not from the text of the source: active = GI50 up to about 1.1 µM and inactive = higher. Non-standard residues stand in square brackets, D forms with d. Residues, ends and D or L forms follow the SMILES beside them. *: point of attachment. Bn2Val = CC(C)[C@@H](C(=O)*)N(Cc1ccccc1)Cc1ccccc1; NMeV = CN[C@H](C(=O)O)C(C)C; X32 = COc1ccc(CN*)c(OC)c1; dNMeA = CN[C@H](C)C(=O)O
Outcome codes: YES = active, NO = inactive

molecule | study target | classification
O=C(O)C1(C(=O)O)CC1 | A549 | NO
Cc1nc2cc(Nc3ccccc3C(=O)O)ccc2s1 | A549 | NO
CCOC(=O)C[C@@]12CCCN[C@]1(C)CCc1ccccc12 | A549 | NO
[O-][S+]1c2ccccc2SCSc2ccccc21 | A549 | NO
O=C1Nc2ccccc2/C1=N/Nc1nc(-c2cccc([N+](=O)[O-])c2)cs1 | A549 | NO
O=c1[nH]c(=O)n(C2OC(COP(=O)(O)OP(=O)(O)OC3OC(CO)C(O)C(O)C3O)C(O)C2O)cc1F (stereo not given) | A549 | YES
O=C(/C=C1/Nc2ccc([N+](=O)[O-])cc2N/C1=C/C(=O)c1ccc(Cl)cc1)c1ccccc1 | A549 | NO
COc1cc2c(cc1OCCCN1CCN(C)CC1)N=C[C@@H]1CCCN1C2=O | A549 | NO
O=C1c2ccccc2S[C@@H](O)[C@@H]2CCCN12 | A549 | NO
O=C(O)CCO/N=C1/C(=C2/C(=O)Nc3ccccc32)Nc2ccccc21 | A549 | NO
O=c1[nH]c(Nc2nc3ccccc3[nH]2)nc2c1CCC2 | A549 | NO
CCc1c(Cc2cccc3ccccc23)n2c(nc1=O)SCC2OCCO (stereo not given) | A549 | NO
CN(C)CC1CCC/C(=C\c2ccc(OC(=O)/C=C/c3ccc(Cl)c(Cl)c3)cc2)C1=O (stereo not given) | A549 | NO
C[C@@H](c1ccccc1)N(CC#N)[C@H]1CCC[C@]1(O)/C=C/c1ccc2c(c1)OCO2 | A549 | NO
Cc1c(C(=O)C/C(=N/NC(=O)C[N+](C)(C)C)C(=O)Nc2ccc(Cl)cc2)[n+]([O-])c2ccccc2[n+]1[O-] | A549 | NO
Cc1ccc2nc(NC(=O)C(=O)C3C(=O)NC(=S)NC3=O)sc2c1 | A549 | NO
COC(=O)[C@@H]1CN(C(=O)Cc2ccccc2)C(=O)N1 | A549 | NO
N#CC(C#N)=C(C(C#N)C#N)C(C#N)C#N | A549 | NO
CCCS(=O)(=O)Nc1ccc(Nc2c3ccccc3nc3ccccc23)c(OC)c1 | A549 | YES
COc1ccc(CNC(=O)[C@@H]2CCCN2C(=O)[C@@H](C)N(C)C(=O)[C@H](C(C)C)N(C)C(=O)[C@@H](NC(=O)[C@H](C(C)C)N(Cc2ccccc2)Cc2ccccc2)C(C)C)c(OC)c1 (Bn2Val-V[NMeV][dNMeA]P-X32) | A549 | NO
